Assayed system: PDE4D (Homo sapiens)
Construct: PDE4D: The catalytic domain of human PDE4B from S3 16-V692; His6 (N); thrombin cleavage site (N); made in house; host or cells: E. coli
Sequence (Q08499 380-756): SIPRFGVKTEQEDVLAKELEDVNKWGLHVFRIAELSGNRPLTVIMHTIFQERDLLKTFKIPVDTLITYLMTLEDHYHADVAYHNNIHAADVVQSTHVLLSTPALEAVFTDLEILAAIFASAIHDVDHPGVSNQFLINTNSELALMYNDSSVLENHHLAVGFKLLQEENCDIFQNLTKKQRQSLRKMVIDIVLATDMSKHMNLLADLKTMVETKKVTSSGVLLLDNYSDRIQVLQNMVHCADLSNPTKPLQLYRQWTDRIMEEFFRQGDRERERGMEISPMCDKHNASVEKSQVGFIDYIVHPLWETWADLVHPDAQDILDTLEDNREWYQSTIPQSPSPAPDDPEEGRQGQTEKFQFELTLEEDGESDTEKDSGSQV
Protocol details: PDE4 IC50 determination by Scintillation Proximity Assay, PDE4D
Type: biochemical
Stated conditions: second part of Table 2B (2-23 to 2-103), column 5; column is PDE4D in first part; read-out: IC 50 vs. indicated assay h TNFα
Readout label: IC50

Reference set, count: 2
[[record]]
smiles_str = "COc1ccc(Nc2nc(N)c(C(=O)c3ccccc3)s2)cc1"
readout_label = "IC50"
experimental_result = "< 10 µM"

[[record]]
smiles_str = "Nc1nc(Nc2ccccn2)sc1C(=O)c1ccccc1"
readout_label = "IC50"
experimental_result = "> 10 µM"


// output IC50; input "Nc1nc(Nc2ccc(C(=O)O)cc2)sc1C(=O)c1ccccc1" ; system PDE4D (Homo sapiens)
< 10 µM

// output IC50; input "Nc1nc(NC2CCCC2)sc1C(=O)c1cccc(C(F)(F)F)c1" ; system PDE4D (Homo sapiens)
< 10 µM
